Provenance of the data: patent US10864201B2

target: FLAG-tagged Vanin-1 (AA 22-493, T26I) (Homo sapiens (Human), UniProt O95497, T26I); test: Vanin-1 enzymatic assay; settings: formation of pantothenic acid from D-pantethine (3 μM), RapidFire MS; geometric mean in case of multiple measurements; read-out: VNN 1 IC50
Sequence (O95497 22-493 T26I): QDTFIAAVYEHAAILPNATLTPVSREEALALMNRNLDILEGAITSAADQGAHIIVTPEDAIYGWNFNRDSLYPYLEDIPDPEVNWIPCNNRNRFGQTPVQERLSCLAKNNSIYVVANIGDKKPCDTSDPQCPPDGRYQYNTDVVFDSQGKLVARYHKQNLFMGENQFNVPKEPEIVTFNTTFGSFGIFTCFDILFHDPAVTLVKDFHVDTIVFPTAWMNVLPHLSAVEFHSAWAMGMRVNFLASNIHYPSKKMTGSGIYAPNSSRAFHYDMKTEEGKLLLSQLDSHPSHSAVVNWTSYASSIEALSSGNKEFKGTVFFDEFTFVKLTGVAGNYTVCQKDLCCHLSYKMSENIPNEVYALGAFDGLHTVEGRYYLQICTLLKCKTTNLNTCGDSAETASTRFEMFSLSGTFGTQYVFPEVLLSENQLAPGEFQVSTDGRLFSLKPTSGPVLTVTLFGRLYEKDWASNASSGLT
Property: pIC50
Notebook: values listed as pIC50 are -log10 of the concentration (mol/L).

# input molecule: CC(=O)N(C)[C@H]1CCN(C(=O)c2cnc3c(c2)C[C@](C)(c2ccc(Cl)cc2)N3)C1 ; wanted: its pIC50 10.00

Try C[C@]1(c2ccc(F)cc2)Cc2cc(C(=O)N3CC4(CCOCC4)C3)cnc2N1 next. 9.22

Try CC1(C)CCc2cc(C(=O)N3CC[C@H](N4CCOC4=O)C3)cnc2N1 next. 8.37

Try CC1(C)CCc2cc(C(=O)N3CCC4(CCOCC4)C3)cnc2N1 next. 8.77
